Hello, the source for this data is the METLIN SMRT retention time set (Domingo-Almenara et al. 2019), in case you need it.

- Assay Method Text: gradient 5% acetonitrile 3 min, to 50% in 2 min, to 85% in 15 min, held 3 min, 100 µL/min
- Run Conditions: column: Zorbax Extend-C18 2.1 x 50 mm; eluents: water / acetonitrile, 0.1% formic acid
As shown below, each of these compounds has a reported RP-LC retention time value.
Enter your answer as a number in s; do not include the unit.

CC(=O)N1CCC(C(=O)Nc2cccc(OCc3nnc(-c4ccccc4)o3)c2)CC1 : 716
Cc1ccc(C(=O)N2CCc3[nH]cnc3C23CCCC3)c(C)c1 : 564
CCc1ccc(NC(=O)C2CCN(S(=O)(=O)c3ccc4c(c3)sc(=O)n4C(C)C)CC2)cc1 : 1060
CCc1ccc(NS(=O)(=O)c2cc(-c3[nH]ncc3C(=O)N3CCCC3)oc2C)cc1 : 758
CC1(C)CC(=O)c2cn(-c3ccc(F)cc3)c(=O)c(C(=O)NC3CC3)c2C1 : 814

Which RP-LC retention time is reported for this compound? CCN1CCN(C(=O)CN2C(=O)COc3ccc(C(=O)N(CC)CC)cc32)CC1 581

And what about the compound O=C(c1ccc(Cl)s1)N1CCN(c2ncnc3c2CCC3)CC1 ? 638

And what about the compound Cc1ccc(CN2CCN(C3CCN(C(=O)Nc4ccc(F)cc4)CC3)C(=O)C2=O)cc1 ? 776

And what about the compound Cc1ccc(NC(=O)C2CCCN2S(=O)(=O)c2cc3c(cc2C)NC(=O)C(C)O3)c(Cl)c1 (centres undefined) ? 914
